# assayedTarget: Cytochrome P450 2D6 (Homo sapiens) (UniProt P10635)
# Sequence (P10635 whole entry, looked up): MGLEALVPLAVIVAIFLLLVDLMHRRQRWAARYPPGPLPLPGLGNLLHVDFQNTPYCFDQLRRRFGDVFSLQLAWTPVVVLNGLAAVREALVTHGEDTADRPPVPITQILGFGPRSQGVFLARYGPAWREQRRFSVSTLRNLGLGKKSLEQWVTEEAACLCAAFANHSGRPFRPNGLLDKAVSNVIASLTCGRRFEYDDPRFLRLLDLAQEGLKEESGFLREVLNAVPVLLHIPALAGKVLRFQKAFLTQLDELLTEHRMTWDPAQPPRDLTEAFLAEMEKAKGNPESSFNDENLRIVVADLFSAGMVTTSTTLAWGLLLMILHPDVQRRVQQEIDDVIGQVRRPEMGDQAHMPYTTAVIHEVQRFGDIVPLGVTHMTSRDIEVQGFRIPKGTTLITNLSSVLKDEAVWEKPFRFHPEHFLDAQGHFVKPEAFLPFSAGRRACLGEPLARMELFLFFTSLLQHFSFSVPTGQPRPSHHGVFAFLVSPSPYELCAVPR
# testSummary: Cytochrome P450 Family 2 Subfamily D Member 6 (CYP2D6) small molecule antagonists: luciferase reporter qHTS assay (AID 1671196); note: nearly all actives have a fitted effect of over 50% in size
# conditionContext: P450-Glo CYP2D6 enzyme assay, luciferin luminescence, 1 h; series mostly up to 115 µM
Results filed as inconclusive are left out. Active and inactive are the calls of the source. Calls come from the whole dose curve; as a rule, active = well fitted inhibition curve with a large enough effect in the repeat runs; inconclusive = weak or mixed curves; inactive = no such curve, though single readings can be large or run the other way.
Labels: 1.0 = active, 0.0 = inactive

>>> df
                             chemicalsmiles                             assayedtarget  assignedcategory
0                          CN1CSC(=S)N(C)C1  Cytochrome P450 2D6 (Homo sapiens) (UniProt P10635)               0.0
1                   Nc1ccc([N+](=O)[O-])cc1  Cytochrome P450 2D6 (Homo sapiens) (UniProt P10635)               1.0
2  ClC1=C(Cl)[C@]2(Cl)[C@@H]3[C@@H](Cl)[C@H]4O[C@H]4[C@@H]3C1(Cl)C2(Cl)Cl  Cytochrome P450 2D6 (Homo sapiens) (UniProt P10635)               0.0
3             OCC(c1ccc(Cl)cc1)c1ccc(Cl)cc1  Cytochrome P450 2D6 (Homo sapiens) (UniProt P10635)               0.0
4         Cc1cc(C(C)(C)c2ccc(O)c(C)c2)ccc1O  Cytochrome P450 2D6 (Homo sapiens) (UniProt P10635)               1.0

----------
# testSummary: qHTS assay to test for compound auto fluorescence at 535 nm (green) in HepG2 cell free culture (AID 720686)
# conditionContext: Cell-free medium, green autofluorescence 485/535 nm; series mostly up to 46 µM
Active and inactive are the calls of the source. Calls follow the shape of the dose curve; as a rule, active = well fitted curve in the direction sought with a large enough effect in the repeat runs; inconclusive = weak or mixed curves; inactive = flat fitted curve, though single readings scatter.

chemicalSmiles	outcome
COc1cc([C@@H]2c3cc4c(cc3[C@@H](O)[C@H]3COC(=O)[C@H]23)OCO4)cc(OC)c1O	inactive
Oc1ccc2c3c1O[C@H]1[C@@H](O)CC[C@@]4(O)[C@@H](C2)N(CC2CCC2)CC[C@]314	inactive
CO[C@H]1[C@@H](O)C[C@H](O[C@H]2[C@@H](O)C[C@H](O[C@H]3[C@@H](O)C[C@H](O[C@H]4CC[C@@]5(C)[C@H](CC[C@@H]6[C@@H]5C[C@@H](O)[C@]5(C)[C@@H](C7=CC(=O)OC7)CC[C@]65O)C4)O[C@@H]3C)O[C@@H]2C)O[C@@H]1C	inactive

----------
# assayedTarget: Acetylcholinesterase (Homo sapiens)
# testSummary: Acetylcholinesterase (AChE) small molecule antagonists: fluorescence cell-based qHTS assay (AID 1347398); note: nearly all actives have a fitted effect of over 50% in size
# conditionContext: SH-SY5Y cells; AChE activity; series mostly up to 115 µM
Records with an inconclusive call do not appear. Activity calls are given as the source filed them. Calls follow the shape of the full dose curve.
endpointLabel: outcome

>>> df
                                   compound  valueobserved
0                   O=C(O)c1cc(O)c(O)c(O)c1       inactive
1  CCOC(=O)NNc1ccc(N(CC)CC(C)O)nn1 (configuration not stated)       inactive
2                  Nc1nc(=S)c2[nH]cnc2[nH]1       inactive
3                                   CCCCC=O       inactive
4    CCCCCCCCCCCC[N+](C)(C)CCCS(=O)(=O)[O-]       inactive
5                  Cc1c(N)cccc1[N+](=O)[O-]       inactive
6            O=[N+]([O-])c1cccc(C(F)(F)F)c1       inactive

----------
# testSummary: qHTS RealTime-Glo MT Cell Viability Assay in HEK293 cells - 24 hour (AID 1224886); note: nearly all actives have a fitted effect of over 50% in size
# conditionContext: RealTime-Glo luminescence; series mostly up to 76.8 µM
Inconclusive results are not listed. The source made the active and inactive calls. Calls come from the whole dose curve; as a rule, active = well fitted cell-killing curve with a large enough effect in the repeat runs; inconclusive = weak or mixed curves, or effect the other way; inactive = flat fitted curve, though single readings scatter.
Outcomes: yes for active, no for inactive

>>> df
                                    compound  assignedcategory
 0  O=C1C(I)=CC(=C(c2cc(I)c(O)c(I)c2)c2ccccc2C(=O)O)C=C1I                no
 1                N#Cc1cc([N+](=O)[O-])ccc1N                no
 2    COc1ccc(C(c2ccc(OC)cc2)C(Cl)(Cl)Cl)cc1               yes
 3        O=[N+]([O-])c1c(Cl)c(Cl)cc(Cl)c1Cl                no
 4                          Oc1c(I)cc(I)cc1I                no
 5  C[C@]12CC[C@@H](O)C[C@@H]1CC[C@@H]1[C@@H]2CC[C@]2(C)C(=O)CC[C@@H]12               yes
 6                     COc1cc(OC)c(OC)cc1C=O                no
 7  CC1COC(Cn2cncn2)(c2ccc(Oc3ccc(Cl)cc3)cc2Cl)O1 (stereo unspecified)               yes
 8                   Nc1ccc([N+](=O)[O-])cc1               yes
 9           O=S(=O)(C(Cl)(Cl)Cl)C(Cl)(Cl)Cl               yes
10   Cc1ccc(N(SC(F)(Cl)Cl)S(=O)(=O)N(C)C)cc1               yes

----------
# assayedTarget: Acetylcholinesterase (Homo sapiens) (UniProt P22303)
# Sequence (P22303 whole entry, looked up): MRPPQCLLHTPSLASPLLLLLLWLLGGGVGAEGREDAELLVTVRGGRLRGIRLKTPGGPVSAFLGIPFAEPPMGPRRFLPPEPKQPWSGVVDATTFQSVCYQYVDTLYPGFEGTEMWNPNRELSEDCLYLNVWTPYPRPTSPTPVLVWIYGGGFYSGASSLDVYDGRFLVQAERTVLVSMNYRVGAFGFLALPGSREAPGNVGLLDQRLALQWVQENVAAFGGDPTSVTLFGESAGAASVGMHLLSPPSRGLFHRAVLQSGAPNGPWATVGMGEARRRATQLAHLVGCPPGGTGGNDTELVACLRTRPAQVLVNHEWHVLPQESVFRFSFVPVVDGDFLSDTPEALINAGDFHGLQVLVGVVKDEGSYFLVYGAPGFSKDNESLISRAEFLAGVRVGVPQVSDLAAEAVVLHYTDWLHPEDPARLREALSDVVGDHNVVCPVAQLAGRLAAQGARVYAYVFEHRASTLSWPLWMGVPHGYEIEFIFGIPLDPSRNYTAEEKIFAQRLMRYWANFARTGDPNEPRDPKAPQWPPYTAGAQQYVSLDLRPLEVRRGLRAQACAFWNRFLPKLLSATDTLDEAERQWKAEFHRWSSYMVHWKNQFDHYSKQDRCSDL
# testSummary: Acetylcholinesterase (AChE) small molecule antagonists: fluorescence cell-based qHTS assay (AID 1347398); note: nearly all actives have a fitted effect of over 50% in size
# conditionContext: SH-SY5Y cells; AChE activity; series mostly up to 115 µM
Records with an inconclusive call do not appear. Calls of active or inactive are those of the source. Calls follow the shape of the full dose curve.
Outcomes: 1.0 = active, 0.0 = inactive

>>> print(df.to_string())
                                    compound  assignedcategory
 0                           O=C(O)CCCC(=O)O               0.0
 1                     Oc1c(I)cc(I)c2cccnc12               0.0
 2  CC(=O)OC[C@H]1O[C@@H](n2ncc(=O)[nH]c2=O)[C@H](OC(C)=O)[C@@H]1OC(C)=O               0.0
 3  C[C@H]1C[C@H]2[C@@H]3CCC4=CC(=O)C=C[C@]4(C)[C@@]3(Cl)[C@@H](O)C[C@]2(C)[C@@]1(O)C(=O)CO               0.0
 4  Cc1cc(SC2=C(O)C[C@@](CCc3ccc(N)cc3)(C(C)C)OC2=O)c(C(C)(C)C)cc1CO               0.0
 5  CCCCCCCCCCCCCCC(=O)NC(CO)CCCCCCCCCCCCCC (stereo not drawn)               0.0
 6  N[C@@H](Cc1cc(I)c(Oc2ccc(O)c(I)c2)c(I)c1)C(=O)O               0.0
 7                               C=Cc1ccccn1               0.0
 8  O=C1C(N(CO)C(=O)NCO)N(CO)C(=O)N1CO (stereo not drawn)               0.0
 9                 CCCCCCOc1cc(C)c(O)c(C)c1C               0.0
10                               OCCc1ccccc1               0.0
11                          NC(=O)c1ccccc1Cl               0.0
12                               Cc1ncc[nH]1               0.0
13                     CC(C)C(=O)OC(=O)C(C)C               0.0
14                           CC(C)C(=O)C(C)C               0.0
15    COC(=O)Nc1nc2ccc(C(=O)c3cccs3)cc2[nH]1               0.0
16             Nc1cc([N+](=O)[O-])ccc1C(=O)O               0.0
17  Cc1nc2sccn2c(=O)c1CCN1CCC(=C(c2ccc(F)cc2)c2ccc(F)cc2)CC1               1.0
18                         C=CC(=C)CCC=C(C)C               0.0
19       CC(C)Oc1ccc2c(=O)c(-c3ccccc3)coc2c1               0.0
20       CCC(C)c1nccnc1OC (stereo not drawn)               0.0
21                 CC(C)(C)OC(=O)c1cccc(N)c1               0.0
22                           O=C(O)P(=O)(O)O               0.0
23                             CCCCCCCCCCCCS               0.0
24                            O=C(O)CCC(=O)O               0.0
25                    COc1ccccc1[N+](=O)[O-]               0.0
26                       CC(C)CCCCCOC(=O)CCS               0.0
27           CCCCCCn1c(=O)c2c(ncn2C)n(C)c1=O               0.0
